# Experimental protocol: Body weight / toxicity of a single intraperitoneal injection in HCT-116 colon tumor-bearing nude mice
# Measurement parameters: Day 1; single IP injection (QD×1); D1 and D2 400 mg/kg, D3 350 mg/kg, D4 300 mg/kg; Mean±SEM
Reported Average weight of the animals values for a set of compounds
Property name: Average weight of the animals (g)

- O=C(CCCC(=O)OC[C@H]1O[C@@H](n2ccc(NC(=O)OCc3ccccc3)nc2=O)C(F)(F)[C@@H]1O)OC[C@H]1O[C@@H](n2ccc(NC(=O)OCc3ccccc3)nc2=O)C(F)(F)[C@@H]1O: 19.23
- CCCCOC(=O)Nc1ccn(C2OC(COC(=O)CCC(=O)OC[C@H]3O[C@@H](n4ccc(NC(=O)OCc5ccccc5)nc4=O)C(F)(F)[C@@H]3O)C(O)C2(F)F)c(=O)n1 (stereo in doubt): 19.90
- CCCCOC(=O)Nc1ccn(C2OC(COC(=O)CCCC(=O)OC[C@H]3O[C@@H](n4ccc(NC(=O)OCCCC)nc4=O)C(F)(F)[C@@H]3OC(=O)OCCCC)C(OC(=O)OCCCC)C2(F)F)c(=O)n1 (stereo in doubt) [Compound D1]: 19.48
- CCCCOC(=O)Nc1ccn([C@H]2O[C@@H](COC(=O)CCC(=O)OC[C@H]3O[C@@H](n4ccc(NC(=O)OCCCC)nc4=O)C(F)(F)[C@@H]3O)[C@H](O)C2(F)F)c(=O)n1 (stereo in doubt) [Compound D2]: 19.85

====

# Experimental protocol: Body weight / toxicity of a single intraperitoneal injection in HCT-116 colon tumor-bearing nude mice
# Measurement parameters: Day 7; single IP injection (QD×1); D1 and D2 400 mg/kg, D3 350 mg/kg, D4 300 mg/kg
Reported Average rate of weight change of the animals values for a set of compounds
Property name: Average rate of weight change of the animals (%)

- CCCCOC(=O)Nc1ccn(C2OC(COC(=O)CCCC(=O)OC[C@H]3O[C@@H](n4ccc(NC(=O)OCCCC)nc4=O)C(F)(F)[C@@H]3OC(=O)OCCCC)C(OC(=O)OCCCC)C2(F)F)c(=O)n1 (stereo in doubt) [Compound D1]: −4.23
- O=C(CCCC(=O)OC[C@H]1O[C@@H](n2ccc(NC(=O)OCc3ccccc3)nc2=O)C(F)(F)[C@@H]1O)OC[C@H]1O[C@@H](n2ccc(NC(=O)OCc3ccccc3)nc2=O)C(F)(F)[C@@H]1O: −1.68
- CCCCOC(=O)Nc1ccn(C2OC(COC(=O)CCC(=O)OC[C@H]3O[C@@H](n4ccc(NC(=O)OCc5ccccc5)nc4=O)C(F)(F)[C@@H]3O)C(O)C2(F)F)c(=O)n1 (stereo in doubt): −1.43
- CCCCOC(=O)Nc1ccn([C@H]2O[C@@H](COC(=O)CCC(=O)OC[C@H]3O[C@@H](n4ccc(NC(=O)OCCCC)nc4=O)C(F)(F)[C@@H]3O)[C@H](O)C2(F)F)c(=O)n1 (stereo in doubt) [Compound D2]: −6.98

====

Reported Average weight of the animals values for a set of compounds
# Experimental protocol: Body weight / toxicity of a single intraperitoneal injection in HCT-116 colon tumor-bearing nude mice
# Measurement parameters: Day 14; single IP injection (QD×1); D1 and D2 400 mg/kg, D3 350 mg/kg, D4 300 mg/kg; Mean±SEM
Property name: Average weight of the animals (g)

- CCCCOC(=O)Nc1ccn([C@H]2O[C@@H](COC(=O)CCC(=O)OC[C@H]3O[C@@H](n4ccc(NC(=O)OCCCC)nc4=O)C(F)(F)[C@@H]3O)[C@H](O)C2(F)F)c(=O)n1 (stereo in doubt) [Compound D2]: 20.85
- CCCCOC(=O)Nc1ccn(C2OC(COC(=O)CCCC(=O)OC[C@H]3O[C@@H](n4ccc(NC(=O)OCCCC)nc4=O)C(F)(F)[C@@H]3OC(=O)OCCCC)C(OC(=O)OCCCC)C2(F)F)c(=O)n1 (stereo in doubt) [Compound D1]: 21.35
- O=C(CCCC(=O)OC[C@H]1O[C@@H](n2ccc(NC(=O)OCc3ccccc3)nc2=O)C(F)(F)[C@@H]1O)OC[C@H]1O[C@@H](n2ccc(NC(=O)OCc3ccccc3)nc2=O)C(F)(F)[C@@H]1O [Compound D3]: 21.26
- CCCCOC(=O)Nc1ccn(C2OC(COC(=O)CCC(=O)OC[C@H]3O[C@@H](n4ccc(NC(=O)OCc5ccccc5)nc4=O)C(F)(F)[C@@H]3O)C(O)C2(F)F)c(=O)n1 (stereo in doubt) [Compound D4]: 20.90

====

Reported Average weight of the animals values for a set of compounds
# Experimental protocol: Body weight / toxicity of a single intraperitoneal injection in HCT-116 colon tumor-bearing nude mice
# Measurement parameters: Day 21; single IP injection (QD×1); D1 and D2 400 mg/kg, D3 350 mg/kg, D4 300 mg/kg; Mean±SEM
Property name: Average weight of the animals (g)

- CCCCOC(=O)Nc1ccn(C2OC(COC(=O)CCCC(=O)OC[C@H]3O[C@@H](n4ccc(NC(=O)OCCCC)nc4=O)C(F)(F)[C@@H]3OC(=O)OCCCC)C(OC(=O)OCCCC)C2(F)F)c(=O)n1 (stereo in doubt) [Compound D1]: 22.30
- O=C(CCCC(=O)OC[C@H]1O[C@@H](n2ccc(NC(=O)OCc3ccccc3)nc2=O)C(F)(F)[C@@H]1O)OC[C@H]1O[C@@H](n2ccc(NC(=O)OCc3ccccc3)nc2=O)C(F)(F)[C@@H]1O: 21.98
- CCCCOC(=O)Nc1ccn([C@H]2O[C@@H](COC(=O)CCC(=O)OC[C@H]3O[C@@H](n4ccc(NC(=O)OCCCC)nc4=O)C(F)(F)[C@@H]3O)[C@H](O)C2(F)F)c(=O)n1 (stereo in doubt) [Compound D2]: 20.72
- CCCCOC(=O)Nc1ccn(C2OC(COC(=O)CCC(=O)OC[C@H]3O[C@@H](n4ccc(NC(=O)OCc5ccccc5)nc4=O)C(F)(F)[C@@H]3O)C(O)C2(F)F)c(=O)n1 (stereo in doubt): 21.63

====

# Test system: HCT-116 human colon cancer cells
# Experimental protocol: Colony formation inhibition test on HCT-116 human colon cancer cells
# Assay type: cell-based
# Measurement parameters: Homo sapiens; HCT-116 cells; dose-response 50, 150, 450 nM; read-out: IC50 value (colony formation inhibition, FIG. 7)
pIC50: −log10 of the molar value.
Property name: pIC50

• O=C(CCCC(=O)OC[C@H]1O[C@@H](n2ccc(NC(=O)OCc3ccccc3)nc2=O)C(F)(F)[C@@H]1O)OC[C@H]1O[C@@H](n2ccc(NC(=O)OCc3ccccc3)nc2=O)C(F)(F)[C@@H]1O = ~7.00
• CCCCOC(=O)Nc1ccn(C2OC(COC(=O)CCCC(=O)OC[C@H]3O[C@@H](n4ccc(NC(=O)OCCCC)nc4=O)C(F)(F)[C@@H]3OC(=O)OCCCC)C(OC(=O)OCCCC)C2(F)F)c(=O)n1 (stereo in doubt) [Compound D1] = ~6.61
• CCCCOC(=O)Nc1ccn([C@H]2O[C@@H](COC(=O)CCC(=O)OC[C@H]3O[C@@H](n4ccc(NC(=O)OCCCC)nc4=O)C(F)(F)[C@@H]3O)[C@H](O)C2(F)F)c(=O)n1 (stereo in doubt) [Compound D2] = ~6.64
• CCCCOC(=O)Nc1ccn(C2OC(COC(=O)CCC(=O)OC[C@H]3O[C@@H](n4ccc(NC(=O)OCc5ccccc5)nc4=O)C(F)(F)[C@@H]3O)C(O)C2(F)F)c(=O)n1 (stereo in doubt) = ~6.95

====

# System: HCT-116 human colon cancer xenografts
# Experimental protocol: Tumor growth inhibition of HCT-116 human colon cancer xenografts in nude mice
# Assay type: in vivo, Balb/c nude mice
# Measurement parameters: Day 14; single IP injection (QD×1); D1 and D2 400 mg/kg, D3 350 mg/kg, D4 300 mg/kg
# Experimental: 2. Preparation of the test substance was performed by dissolving the test substance using the following solvents: 3. Animal experiments were performed. […] Animals were numbered using their tail number. 4.1 Tumor cells were human HCT-116 colon cancer cells purchased from the Institute of Cell Biology, Chinese Academy of Sciences (Beijing, China). […] The cells were resuspended with serum-free medium and counted. […]
Property name: Tumor growth inhibition rate (TGI %)

• O=C(CCCC(=O)OC[C@H]1O[C@@H](n2ccc(NC(=O)OCc3ccccc3)nc2=O)C(F)(F)[C@@H]1O)OC[C@H]1O[C@@H](n2ccc(NC(=O)OCc3ccccc3)nc2=O)C(F)(F)[C@@H]1O [Compound D3] = 97.43
• CCCCOC(=O)Nc1ccn([C@H]2O[C@@H](COC(=O)CCC(=O)OC[C@H]3O[C@@H](n4ccc(NC(=O)OCCCC)nc4=O)C(F)(F)[C@@H]3O)[C@H](O)C2(F)F)c(=O)n1 (stereo in doubt) [Compound D2] = 91.88
• CCCCOC(=O)Nc1ccn(C2OC(COC(=O)CCCC(=O)OC[C@H]3O[C@@H](n4ccc(NC(=O)OCCCC)nc4=O)C(F)(F)[C@@H]3OC(=O)OCCCC)C(OC(=O)OCCCC)C2(F)F)c(=O)n1 (stereo in doubt) [Compound D1] = 80.16
• CCCCOC(=O)Nc1ccn(C2OC(COC(=O)CCC(=O)OC[C@H]3O[C@@H](n4ccc(NC(=O)OCc5ccccc5)nc4=O)C(F)(F)[C@@H]3O)C(O)C2(F)F)c(=O)n1 (stereo in doubt) [Compound D4] = 95.12
